src = patent US20230123334A1

# Test system: HEK293 cells
# procedure summary: Preliminary screening as DNA vectors, GFP transfection of HEK293 cells
# Assay type: cell-based
# measurement parameters: amino lipid/DOPE liposome with 75 ng plasmid DNA (psin-EGFP-IRES-Puro); number of GFP-expressing cells divided by total nuclei (Hoechst)
Measured Absolute DNA transfection efficiency in HEK293 cells by item
Quick reminder: number only, in %, skip the unit.

Problem: Tell me its Absolute DNA transfection efficiency in HEK293 cells given CCCCCCCCCCCCCCCCCCSc1nc(NCCN(C)C)nc(SCCCCCCC)n1 [S7S18 D1] as the entry.
Solution: 3.7

Problem: Tell me its Absolute DNA transfection efficiency in HEK293 cells given CCCCCCCCCCCCCCCCCCSc1nc(NCCCCCCC)nc(NCCN(CC)CC)n1 as the entry.
Solution: 4.5

Problem: Tell me its Absolute DNA transfection efficiency in HEK293 cells given CCCCCCCCCCCCCCCCNc1nc(NCCCN2CCN(C)CC2)nc(SCCCCCCCC)n1 as the entry.
Solution: 9.7

Problem: Tell me its Absolute DNA transfection efficiency in HEK293 cells given CCCCCCCCCCCCCCCCSc1nc(NCCN2CCCCC2)nc(SCCCCCCC)n1 as the entry.
Solution: 10.9
